assay-system: human JAK2 (a.a. 828-1132) (Homo sapiens, UniProt O60674)
Construct: JAK2 (a.a. 828-1132); His tag (N); made in house; host or cells: insect cells (baculovirus)
Sequence (O60674 828-1132): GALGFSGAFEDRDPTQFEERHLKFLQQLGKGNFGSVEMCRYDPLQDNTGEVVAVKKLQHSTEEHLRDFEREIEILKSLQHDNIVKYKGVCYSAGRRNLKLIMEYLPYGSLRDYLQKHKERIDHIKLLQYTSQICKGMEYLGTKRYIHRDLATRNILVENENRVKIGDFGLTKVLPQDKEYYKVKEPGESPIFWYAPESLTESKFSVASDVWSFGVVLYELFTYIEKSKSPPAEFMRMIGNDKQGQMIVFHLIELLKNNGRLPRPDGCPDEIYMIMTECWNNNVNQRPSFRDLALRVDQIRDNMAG
assay-details: In vitro JAK kinase assay (HTRF, phosphorylation of a biotinylated peptide), JAK2
Assay type: biochemical
condition: Table B1
pIC50: −log10 of the molar value. Counter-ions that a name gives are not always drawn.
recorded-metric: pIC50

>  <compound>
O=C(Nc1ccc2cc1CCc1cccc(c1)Nc1ncc(Cl)c(n1)N2)c1ccc(Cl)cc1 [Example B43, hydrochloride]

>  <pIC50>
8.96

$$$$

P: COc1ccc(CN2CCN(Cc3cc4cc(c3)Nc3nc(ncc3Cl)Nc3cccc(c3)CC4)CC2)cc1 [Example B197, tris(trifluoroacetate)]
Q: Cc1occc1NC(=O)N1CCC(CN(C)Cc2ccc3cc2CCc2cncc(c2)Nc2ncc(Cl)c(n2)N3)CC1 [Example B349, tris(trifluoroacetate)]
R: O=C(Nc1cc2cc(c1)Nc1nc(ncc1Cl)Nc1cccc(c1)CC2)c1ccno1 [Example B206, trifluoroacetate]
Problem: Please list these compounds in decreasing order of pIC50. Record the ranking as a list of labels in the requested order.
Result: P, R, Q

----------
assay-system: human JAK1 (a.a. 837-1142) (Homo sapiens, UniProt P23458)
Construct: human JAK1 (a.a. 837-1142); His tag (N); made in house; host or cells: insect cells (baculovirus)
Sequence (P23458 849-1154): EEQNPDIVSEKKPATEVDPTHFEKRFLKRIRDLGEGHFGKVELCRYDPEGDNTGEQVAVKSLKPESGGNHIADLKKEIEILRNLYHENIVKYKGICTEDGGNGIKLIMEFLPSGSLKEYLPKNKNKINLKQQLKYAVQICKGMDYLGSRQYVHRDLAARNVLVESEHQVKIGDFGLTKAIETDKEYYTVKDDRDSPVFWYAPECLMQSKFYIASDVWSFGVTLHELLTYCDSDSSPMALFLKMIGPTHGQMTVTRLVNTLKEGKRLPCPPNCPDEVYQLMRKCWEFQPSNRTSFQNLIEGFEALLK
assay-details: In vitro JAK kinase assay (HTRF, phosphorylation of a biotinylated peptide), JAK1
Format: biochemical
condition: method AA1 (90 μM ATP) or AA2 (1000 μM ATP), not stated per value; read-out: JAK1 IC50
pIC50: −log10 of the molar value. Structures can show the parent of a compound that is named as a salt.
recorded-metric: pIC50

>  <compound>
CCC(=O)N1CCC(CC(=O)Nc2ccc3cc2CCc2cccc(c2)Nc2ncc(Cl)c(n2)N3)CC1 [Example A90, trifluoroacetate]

>  <recorded-metric>
pIC50

>  <value-measured>
8.31

$$$$

I: O=C(CC1CCN(S(=O)(=O)c2ccccc2)CC1)Nc1ccc2cc1CCc1cccc(c1)Nc1ncc(Cl)c(n1)N2 [Example A205, trifluoroacetate]
II: Cc1cc(C(=O)N2CCC(C(=O)Nc3ccc4cc3CCc3cccc(c3)Nc3ncc(Cl)c(n3)N4)CC2)no1 [Example A120, trifluoroacetate]
III: COc1cccc(NC(=O)N2CCC(CC(=O)Nc3ccc4cc3CCc3cncc(c3)Nc3ncc(Cl)c(n3)N4)CC2)c1 [Example A153, bis(trifluoroacetate)]
IV: N#Cc1ccc(NC(=O)N2CCC(CC(=O)Nc3ccc4cc3CCc3cncc(c3)Nc3ncc(Cl)c(n3)N4)CC2)cc1 [Example A143, bis(trifluoroacetate)]
Problem: Please list these compounds in decreasing order of pIC50. Record the ranking as a list of labels in the requested order.
Result: III, IV, II, I

----------
assay-system: human JAK2 (a.a. 828-1132) (Homo sapiens, UniProt O60674)
Construct: JAK2 (a.a. 828-1132); His tag (N); made in house; host or cells: insect cells (baculovirus)
assay-details: In vitro JAK kinase assay (HTRF, phosphorylation of a biotinylated peptide), JAK2
Assay type: biochemical
condition: Table D1
Structures can show the parent of a compound that is named as a salt.
recorded-metric: IC50 (nM)

>  <molecule>
O=C(C[C@@H]1CCN(C(=O)c2cc[nH]n2)C1)Nc1ccc2cc1CCc1cncc(c1)Nc1ncc(Cl)c(n1)N2 [Example D134, bis(trifluoroacetate)]

>  <value-measured>
357

$$$$

I: O=C(C[C@@H]1CCN(c2nc3cccnc3o2)C1)Nc1ccc2cc1CCc1cncc(c1)Nc1ncc(Cl)c(n1)N2 [Example D140, tris(trifluoroacetate)]
II: O=C(Nc1cc2cc(c1)OCCSc1cccc(c1)Nc1nc(ncc1Cl)N2)c1ccc2occc2c1 [Example D61, trifluoroacetate]
Problem: Task for the reader: decide whether I or II has the larger IC50. Reply with the label of the item you choose.
Result: I
